IC50 listing for selected binders.
- system name: T1, CD3 expressed on cell-surface of primary human T cells (human, UniProt P07766 23-207; P04234 22-171)
- T1 construct: also called cell-surface CD3; human CD3
- T1 sequence (P07766 23-207 limits assumed, chain 1 of 2): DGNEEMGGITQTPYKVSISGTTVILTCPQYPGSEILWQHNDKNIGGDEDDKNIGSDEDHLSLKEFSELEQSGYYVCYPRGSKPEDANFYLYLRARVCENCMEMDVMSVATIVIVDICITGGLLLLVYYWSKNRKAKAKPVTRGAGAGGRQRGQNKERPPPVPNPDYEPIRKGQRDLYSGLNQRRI
- T1 sequence (P04234 22-171 limits assumed, chain 2 of 2): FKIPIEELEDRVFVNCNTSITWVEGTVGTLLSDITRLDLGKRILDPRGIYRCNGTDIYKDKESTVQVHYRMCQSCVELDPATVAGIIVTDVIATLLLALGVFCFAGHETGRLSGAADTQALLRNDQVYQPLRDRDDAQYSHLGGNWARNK
- test details: flow cytometry competition vs murine SP34-AF488 on human T cells, average
observation type: IC50

{"binder": "huSP34.13.10 Fab-HF (Fab, V domains shown) VH: EVQLVESGGGLVQPGGSLRLSCAASGFTFSTYAMNWVRQAPGKGLEWVGRIRSKYNNYATYYAASVKGRFTISRDDSKNTLYLQMNSLRTEDTAVYYCVRHGNFGHSYVSWFAYWGQGTLVTVSS VL: QAVVTQPPSLTVSPGGTVTLTCGSSTGAVTTGHYANWVQQKPGQAPRGLIGGTNKRAPGVPARFSGSLSGGKAALTISGAQPEDEAEYYCALWYSNRWVFGGGTKLTVL", "value": "0.25 mg/L"}
{"binder": "huSP34.12.8 Fab-HF (Fab, V domains shown) VH: EVQLVESGGGLVQPGGSLRLSCAASGFTFSTYAMNWVRQAPGKGLEWVARIRSKYNNYATYYAASVKGRFTISRDDSKNSLYLQMNSLRTEDTAVYYCVRHGNFGHSYVSWFAYWGQGTLVTVSS VL: QAVVTQEPSLTVSPGGTVTLTCGSSTGAVTTGHYANWVQQKPGQAPRGLIGGTNKRAPGVPARFSGSLLGGKAALTISGAQPEDEAEYYCALWYSNRWVFGGGTKLTVL", "value": "0.43 mg/L"}
